Where do the numbers come from? From patent US9920075B2.

# tested target: myeloperoxidase (MPO) (Homo sapiens, UniProt P05164)
# Sequence (P05164 49-745): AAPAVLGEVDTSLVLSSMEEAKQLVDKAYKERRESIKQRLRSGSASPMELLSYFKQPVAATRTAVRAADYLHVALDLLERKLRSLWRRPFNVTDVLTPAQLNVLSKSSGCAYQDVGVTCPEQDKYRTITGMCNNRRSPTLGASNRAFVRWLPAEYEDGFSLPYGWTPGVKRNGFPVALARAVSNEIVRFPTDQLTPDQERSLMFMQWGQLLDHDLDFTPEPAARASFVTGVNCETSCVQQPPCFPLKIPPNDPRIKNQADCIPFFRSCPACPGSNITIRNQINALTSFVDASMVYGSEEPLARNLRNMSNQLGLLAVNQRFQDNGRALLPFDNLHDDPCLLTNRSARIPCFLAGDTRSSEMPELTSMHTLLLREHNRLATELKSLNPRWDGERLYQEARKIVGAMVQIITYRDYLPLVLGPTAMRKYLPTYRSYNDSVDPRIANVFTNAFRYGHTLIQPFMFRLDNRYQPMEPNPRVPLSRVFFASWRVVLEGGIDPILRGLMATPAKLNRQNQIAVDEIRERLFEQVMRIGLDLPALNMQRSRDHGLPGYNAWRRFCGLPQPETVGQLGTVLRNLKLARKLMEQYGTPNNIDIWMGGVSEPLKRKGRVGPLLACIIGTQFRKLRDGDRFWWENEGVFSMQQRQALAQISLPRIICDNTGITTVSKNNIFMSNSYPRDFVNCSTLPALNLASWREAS
# test name: MPO peroxidation assay (Amplex Red assay)
# Format: biochemical
# assay setup: MPO peroxidation (Amplex Red), ranges given; read-out: MPO peroxidation assay IC50 values (binned)
IC50 listing for selected molecules.

Please review the entries below; each comes with its answer.
1) Cn1ncc2cccc(COc3cc(N)nc4[nH]nnc34)c21 [Example 8]	≤ 60 nM
2) Nc1cc(OCc2cccc(C(F)(F)F)n2)c2nn[nH]c2n1 [Example 16]	≤ 60 nM
3) N#Cc1nn(-c2ccccc2)nc1COc1cc(N)nc2[nH]nnc12 [Example 65]	≤ 60 nM
4) Nc1nc(OCc2cc(Cl)nc(Cl)c2)c2nn[nH]c2n1 [Example 119]	60 to 150 nM
5) Nc1cc(OCc2nc(-c3ccccc3)no2)c2nn[nH]c2n1 [Example 24]	60 to 150 nM
6) Cn1nc(COc2cc(N)nc3[nH]nnc23)cc1-c1ccc(CO)nc1 [Example 103]	60 to 150 nM

q: Notebook: pull reported IC50 for myeloperoxidase (MPO) (Homo sapiens, UniProt P05164), entry CN1CCN(c2ccc(-c3cc(COc4cc(N)nc5[nH]nnc45)nn3C)cn2)CC1 [Example 105]
a: ≤ 60 nM

q: Notebook: pull reported IC50 for myeloperoxidase (MPO) (Homo sapiens, UniProt P05164), entry Cc1oc(-c2cc(F)cc(F)c2)nc1COc1cc(N)nc2[nH]nnc12 [Example 27]
a: 150 to 1000 nM

q: Notebook: pull reported IC50 for myeloperoxidase (MPO) (Homo sapiens, UniProt P05164), entry Nc1cc(OCc2cccc3c2OC(F)(F)O3)c2nn[nH]c2n1 [Example 3]
a: ≤ 60 nM
